Reported IC50 is given for each of the following compounds.
- System Name: wild type NTRK1 enzyme (Homo sapiens)
- Construct: purchased BPS Bioscience 40280
- Protocol Details: NTRK1 Wild Type Assay at 1 mM ATP
- Format: biochemical
- Stated Conditions: 1 mM ATP; read-out: Enz NTRK1 IC50

Hi! What's the reported IC50 for `O=C(N[C@H](CO)c1cc(F)ccc1F)c1n[nH]c2ncnc(N[C@@H]3COCC[C@H]3O)c12` on wild type NTRK1 enzyme (Homo sapiens)? 10 to 100 nM

====

- System Name: wild type NTRK1 enzyme (Homo sapiens, UniProt P04629)
- Construct: purchased BPS Bioscience 40280
- Sequence (P04629 440-796 limits assumed): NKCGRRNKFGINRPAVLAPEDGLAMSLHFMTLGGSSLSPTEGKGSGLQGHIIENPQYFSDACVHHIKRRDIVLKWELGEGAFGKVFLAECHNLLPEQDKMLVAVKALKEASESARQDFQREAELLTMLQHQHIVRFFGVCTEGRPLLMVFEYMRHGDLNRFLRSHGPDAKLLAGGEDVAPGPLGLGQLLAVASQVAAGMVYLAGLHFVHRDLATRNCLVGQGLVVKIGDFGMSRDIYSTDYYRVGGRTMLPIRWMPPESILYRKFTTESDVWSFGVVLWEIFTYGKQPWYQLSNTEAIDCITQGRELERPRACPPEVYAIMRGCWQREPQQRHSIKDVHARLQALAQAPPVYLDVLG
- Protocol Details: NTRK1 Wild Type Assay at 1 mM ATP
- Type: biochemical
- Stated Conditions: 1 mM ATP; read-out: Enz NTRK1 IC50
pIC50: −log10 of the molar value.
Result Type: pIC50

Dear colleague, I am looking for the recorded pIC50 of the following compound: `O=C(c1n[nH]c2ncnc(N[C@H]3[C@H](O)[C@H](O)[C@@H]4C[C@@H]43)c12)N1C[C@@H](F)C[C@@H]1c1cc(F)cc(Cl)c1` > 8.00

Others:
Consider the compound `O=C(c1n[nH]c2ncnc(N[C@@H]3CCCC(F)(F)[C@H]3O)c12)N1C[C@@H](F)C[C@@H]1c1cncc(F)c1` and give its measured pIC50. 7.00 to 8.00

Recorded pIC50 of `N#C[C@H]1C[C@@H](O)[C@H](Nc2ncnc3[nH]nc(C(=O)N4C[C@@H](F)C[C@@H]4c4cc(F)cc(F)c4F)c23)C1` , please. > 8.00

Reported pIC50, compound CCN(Cc1cc(F)ccc1F)C(=O)c1n[nH]c2ncnc(NC3CCCC3O)c12 (stereo not drawn) : ____ 7.00 to 8.00
